Please go through the items and note down their activity at 1 µM.
TESTED ON: MYST1 (Homo sapiens, UniProt Q9H7Z6)
Sequence (Q9H7Z6 whole entry, species assumed): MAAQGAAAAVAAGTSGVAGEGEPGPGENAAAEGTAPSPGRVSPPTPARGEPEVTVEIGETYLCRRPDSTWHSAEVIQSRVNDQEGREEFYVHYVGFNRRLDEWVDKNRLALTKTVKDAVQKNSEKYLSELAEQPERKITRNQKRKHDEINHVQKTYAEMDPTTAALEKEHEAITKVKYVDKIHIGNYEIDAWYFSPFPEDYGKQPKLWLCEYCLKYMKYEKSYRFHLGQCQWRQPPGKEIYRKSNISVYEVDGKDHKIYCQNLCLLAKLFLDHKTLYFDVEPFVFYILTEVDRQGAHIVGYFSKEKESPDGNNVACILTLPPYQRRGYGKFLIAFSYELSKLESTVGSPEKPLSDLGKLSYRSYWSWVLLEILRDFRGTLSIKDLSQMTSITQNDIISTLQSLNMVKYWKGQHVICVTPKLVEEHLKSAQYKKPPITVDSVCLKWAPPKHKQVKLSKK
PROTOCOL: Histone acetyltransferase (HAT) activity assay;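 also: selectivity screen across a panel of histone acetyltransferases, with compounds tested at 1 and 10 µM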
Assay type: biochemical
CONDITION INFO: 1µM; read-out: HATs Activity (%)
A number alone suffices; assume %.

CO[C@H]1CNC[C@@H](OCC2CCC(F)(F)CC2)[C@@H]1Nc1ncc(-c2cncc(C)c2)c2cc(C)c(=O)[nH]c12 [GSK8814] yielded activity at 1 µM of 99

COc1cc(Cl)c(C(=O)N[C@@H](CN[C@H]2CC[C@@H](N)CC2)Cc2ccc(C#N)cc2)cc1-c1ccc(CN[C@H](C)c2ccc(C)cc2)o1 [BAY-850] yielded activity at 1 µM of 93

Cc1nnc2c3ccccc3c(N[C@@H](C)[C@H](c3ccccc3)N(C)C)nn12 [L-Moses] yielded activity at 1 µM of 97

COc1cc(-c2cn(C)c(=O)c3cnccc23)c(OC)cc1CN(C)C [BI-9564] yielded activity at 1 µM of 106

Cc1c(NC(=O)c2cc(C(N)=O)nc3cc(F)ccc23)c(C(F)(F)F)nn1Cc1ccc(C(C)(C)C)cc1 [BAY-588] yielded activity at 1 µM of 100

COc1ccc(CCc2nc3cc(-c4c(C)noc4C)ccc3n2C[C@H](C)N2CCOCC2)cc1Cl [SGC-CBP30] yielded activity at 1 µM of 103

Cc1cc2c(cc1N1C(=O)c3cccc4c(CCCO)ccc(c34)C1=O)n(C)c(=O)n2C [BAY-299] yielded activity at 1 µM of 99
